// data source = patent US20080051429A1

target-entity: 5-HT2A receptor (Homo sapiens)
Construct: expressed in transfected cells; host or cells: NIH3T3 cells, pSI expression vector
Sequence (P28223 whole entry): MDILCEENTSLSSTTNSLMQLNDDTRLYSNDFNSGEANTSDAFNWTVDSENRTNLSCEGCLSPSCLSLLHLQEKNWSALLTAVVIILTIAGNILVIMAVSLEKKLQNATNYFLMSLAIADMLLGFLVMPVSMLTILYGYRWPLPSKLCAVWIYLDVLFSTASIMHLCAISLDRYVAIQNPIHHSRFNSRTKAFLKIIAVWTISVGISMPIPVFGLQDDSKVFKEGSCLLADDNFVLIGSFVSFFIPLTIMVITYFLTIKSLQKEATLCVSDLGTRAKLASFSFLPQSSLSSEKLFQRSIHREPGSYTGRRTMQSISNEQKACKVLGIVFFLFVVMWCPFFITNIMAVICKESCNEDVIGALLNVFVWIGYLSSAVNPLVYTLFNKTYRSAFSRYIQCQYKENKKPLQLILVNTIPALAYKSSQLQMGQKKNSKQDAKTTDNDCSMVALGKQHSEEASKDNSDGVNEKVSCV
experiment-notes: R-SAT functional receptor assay
Assay type: cell-based
test-context: 120 h, read-out: Percent Efficacy, compared to ritanserin

{"compound": "COc1ccc(CC(=O)N(Cc2ccc(C)cc2)C2CCN(C)CC2)cc1O [Example 57MBT12B]", "Emax (%)": 75}
{"compound": "COc1ccc(CC(=O)N(Cc2ccc(F)cc2)C2CCN(C)CC2)cc1", "Emax (%)": 129}
{"compound": "COc1ccc(CC(=O)N(Cc2ccc(C)cc2)C2CCN(CCC(C)(C)C)CC2)cc1", "Emax (%)": 94}
{"compound": "COc1ccc(CC(=O)N(Cc2ccc(C)cc2)C2CCNCC2)cc1 [Example 26HCH71B]", "Emax (%)": 124}
{"compound": "CCN1CCC(N(Cc2ccc(C)cc2)C(=O)Cc2ccc(OC)cc2)CC1", "Emax (%)": 122}
{"compound": "COc1ccc(CC(=O)N(Cc2ccc(C)cc2)C2CCN(C(C)C)CC2)cc1", "Emax (%)": 110}
{"compound": "COc1ccc(CC(=O)N(Cc2ccc(C)cc2)C2CCN(C)CC2)cc1", "Emax (%)": 108}
{"compound": "Cc1ccc(CN(C(=O)Cc2ccc(Cl)cc2)C2CCN(C(C)C)CC2)cc1", "Emax (%)": 120}
{"compound": "Cc1ccc(CN(C(=O)NCc2ccccc2)C2CCNCC2)cc1", "Emax (%)": 103}
{"compound": "COc1ccc(CC(=O)N(Cc2ccc(C)c(O)c2)C2CCN(C)CC2)cc1 [Example 57MBT54B]", "Emax (%)": 95}
{"compound": "COc1ccc(CNC(=O)N(Cc2ccc(C)cc2)C2CCN(C)CC2)cc1", "Emax (%)": 112}
